# system: T1, human neuropeptide Y2 receptor (human, UniProt P49146 1-381)
# T1 sequence (looked up): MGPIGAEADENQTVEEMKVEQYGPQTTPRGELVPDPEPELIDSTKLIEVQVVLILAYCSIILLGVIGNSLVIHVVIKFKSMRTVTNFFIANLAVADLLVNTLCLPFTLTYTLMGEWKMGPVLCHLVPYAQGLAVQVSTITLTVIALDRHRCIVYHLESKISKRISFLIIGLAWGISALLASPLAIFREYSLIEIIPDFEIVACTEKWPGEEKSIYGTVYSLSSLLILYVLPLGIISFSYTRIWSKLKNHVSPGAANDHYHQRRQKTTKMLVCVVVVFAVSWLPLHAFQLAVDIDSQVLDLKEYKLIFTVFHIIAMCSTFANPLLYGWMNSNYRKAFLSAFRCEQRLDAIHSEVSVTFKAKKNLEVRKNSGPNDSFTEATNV
# assay.explanation: cell-based or functional assay
*1 amine or outer side, *2 acyl side, *3 side chain or, on linkers, in order; H or OH if unused. Where no end group is shown, it is not given here. Side-chain parts run from the residue outwards. [ ]: non-standard residue; d: D form. The star is where a group is joined. C18 diacid = O=C(O)CCCCCCCCCCCCCCCCC(=O)*; γGlu = O=C(O)[C@H](CCC(=O)[*:2])N[*:1]; εLys = N[C@@H](CCCCN[*:1])C(=O)[*:2]; Aib = CC(C)(N)C(=O)O
recorded.metric: EC50, CreLuc reporter, 100% hP (nM)

INSERT INTO results (binder, recorded_metric, u, assay_result) VALUES
  ('YXEGTFTSDYSIXLEKQAQXAFVRHLINKLTRQRY (Aib at 2, 13, 20; Lys29 epsilon-amino acylated with C18DA-gGlu-gGlu-gGlu-gGlu-gGlu-AHX; C-terminal amide) [Compound 69]', 'EC50, CreLuc reporter, 100% hP', 'nM', 56),
  ('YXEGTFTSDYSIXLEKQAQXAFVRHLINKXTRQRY (Aib at 2, 20, 30; aMeL at 13; Lys29 epsilon-amino acylated with C20DA-gGlu-gGlu-gGlu-gGlu-gGlu-gGlu; C-terminal amide) [Compound 49]', 'EC50, CreLuc reporter, 100% hP', 'nM', 763),
  ('Y[Aib]EGTFTSDYSI[Aib]LEEQAQ[Aib]AFVRHLINK([εLys-γGlu-γGlu-γGlu-γGlu-γGlu-C18 diacid])[Aib]TRQRY-NH2 [Compound 48]', 'EC50, CreLuc reporter, 100% hP', 'nM', 77.2),
  ('YXEGTFTSDYSIXLDEQAQXAFVRHLINKXTRQRY (Aib at 2, 13, 20, 30; Lys29 epsilon-amino acylated with C18DA-gGlu-gGlu-gGlu-gGlu-gGlu-gGlu-eLys; C-terminal amide) [Compound 40]', 'EC50, CreLuc reporter, 100% hP', 'nM', 59.4),
  ('YXEGTFTSDYSIXLEKQAYXAFVRHLINKXTRQRY (Aib at 2, 13, 20, 30; Lys29 epsilon-amino acylated with C18DA-gGlu-gGlu-gGlu-gGlu-gGlu-gGlu-eLys; C-terminal amide) [Compound 84]', 'EC50, CreLuc reporter, 100% hP', 'nM', 55),
  ('YXEGTFTSDLSIXLEKQAQXAFVRHLINKXTRQRY (Aib at 2, 13, 20, 30; Lys29 epsilon-amino acylated with C20DA-gGlu-gGlu-gGlu-gGlu-gGlu-AHX-AHX; C-terminal amide) [Compound 1]', 'EC50, CreLuc reporter, 100% hP', 'nM', 127),
  ('YXEGEFTSDYSIXLEKQAQXAFVRHLINKXTRQRY (Aib at 2, 13, 20, 30; Lys29 epsilon-amino acylated with C18DA-gGlu-gGlu-gGlu-gGlu-gGlu-gGlu-eLys; C-terminal amide) [Compound 54]', 'EC50, CreLuc reporter, 100% hP', 'nM', 38.3),
  ('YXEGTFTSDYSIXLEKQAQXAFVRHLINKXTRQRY (Aib at 2, 13, 20, 30; Lys29 epsilon-amino acylated with C18DA-gGlu-gGlu-gGlu-gGlu-gGlu-gGlu-gGlu; C-terminal amide) [Compound 38]', 'EC50, CreLuc reporter, 100% hP', 'nM', 141),
  ('YXEGTFTSDYSIXLEKQAQXEFVRHLINKLTRQRY (Aib at 2, 13, 20; Lys29 epsilon-amino acylated with C18DA-gGlu-gGlu-gGlu-gGlu-gGlu-AHX; C-terminal amide) [Compound 45]', 'EC50, CreLuc reporter, 100% hP', 'nM', 224),
  ('Y[Aib]EGTFTSDYSI[Aib]LEKQAQ[Aib]EFVRHLINK([εLys-γGlu-γGlu-γGlu-γGlu-γGlu-γGlu-γGlu-C18 diacid])LTRQRY-NH2 [Compound 32]', 'EC50, CreLuc reporter, 100% hP', 'nM', 44.6),
  ('YXEGTFTSDYSIXLEKQEQXAFVRHLINKXTRQRY (Aib at 2, 13, 20, 30; Lys29 epsilon-amino acylated with C18DA-gGlu-gGlu-gGlu-gGlu-gGlu-gGlu-eLys; C-terminal amide) [Compound 36]', 'EC50, CreLuc reporter, 100% hP', 'nM', 95.2),
  ('YXEGTFTSDYSIXLDAQAQXAFVRHLINKXTRQRY (Aib at 2, 13, 20, 30; Lys29 epsilon-amino acylated with C18DA-gGlu-gGlu-gGlu-gGlu-gGlu-gGlu-eLys; C-terminal amide) [Compound 55]', 'EC50, CreLuc reporter, 100% hP', 'nM', 108);
